- Measurement Description: qHTS for Inhibitors of human tyrosyl-DNA phosphodiesterase 1 (TDP1): qHTS in cells in presence of CPT; further: nearly all actives have a fitted effect of over 55% in size
- Condition Set: chicken DT40 Tdp1-/-;hTDP1 cells + 20 nM CPT, ATP luminescence, 48 h; series mostly up to 46.2 µM
Screen size: about 420,000 compounds; about 50,000 (12%) were called active. About 26% were inconclusive and are not listed. The call rests on the fitted dose curve; in most records, active means well fitted inhibition curve with a large enough effect; inconclusive means small, poorly fitted or top-dose-only effect; inactive means flat fitted curve, though single readings scatter. Shown is part of a subset that was picked to be rich in actives.
Output constraint: value belongs to active, inactive

So what was the verdict on O=S(=O)(NCc1ccccc1Br)c1ccccc1Br in this test?
inactive

Another compound to check: O=S(=O)(c1ccc(F)cc1)n1ccc(-c2cnc(-c3ccccc3)s2)n1
inactive

Note, next up: Cc1ccccc1C(=O)N1CCC(C(=O)Nc2ccc(S(=O)(=O)N(C)C(C)C)cc2)CC1
active

What about O=C1NCC(c2ccccc2)(c2ccccc2)C(=O)N1 ?
inactive

Now the same for COc1ccc(-c2nnc(SCC(=O)NC3CCCCC3)o2)cc1OC
active

// same read-out, input: O=C(c1ccc2c(c1)OCO2)N1CCN(C(=O)c2ccco2)CC1
inactive

// next record COc1ccccc1NC(=O)N(O)C1(C#N)CCCCC1
inactive

Can you check CCc1nnc(NC(=O)C2CCN(C(=O)c3ccccc3C)CC2)s1 next?
inactive

Moving on to O=C(/C=C/c1ccc2c(c1)OCO2)NCc1ccc(F)cc1
inactive

Now try CC(C(=O)O)c1ccc(C2CCCCC2)c2ccccc12 (stereo unspecified) .
inactive

And what about the compound CCN(CC(=O)N1CCCC1)S(=O)(=O)c1ccc(F)cc1 ?
inactive
